System: human patient-derived xenografts
Assay: Xenograft-derived chemical screen (Supplemental Table 3)
Assay type: cell-based
Settings: Homo sapiens, read-out: IC50 Value
READOUT: IC50 (nM)
Use nM as the unit, but write only the number.

## Task Dear colleague, I am looking for the recorded IC50 of the following molecule: `C[C@@]1(C(=O)Nc2ccc(F)nc2)CCCN1c1nc(Nc2cc(C3CC3)n[nH]2)c2cccn2n1`
## Result 1730

* * *

Tested on: DIPG neurospheres
Test: cells
Details: Mus musculus, read-out: in vitro IC50 in the high throughput drug screen
READOUT: IC50 (nM)
Use nM as the unit, but write only the number.

## Task Dear colleague, I am looking for the recorded IC50 of the following molecule: `C[C@@]1(C(=O)Nc2ccc(F)nc2)CCCN1c1nc(Nc2cc(C3CC3)n[nH]2)c2cccn2n1`
## Result 90
